# targetSystem: GABA B receptor (Rattus norvegicus) (UniProt Q9Z0U4+O88871)
# experimentDescription: Displacement of [3H]-GABA from Gamma-aminobutyric acid type B receptor in rat brain membranes
# Format: cell membranes
# Set-up: concentration or dose not given beside the values

# compound, comparisonSymbol, Displacement, %
measured = [
    ("O=C(O)[C@@H]1CCCC2NCCCC21 (stereo in doubt; 3)", "<", 10),
    ("NCCCC(=O)O", "=", 100),
    ("O=C(O)[C@@H]1CCCC2NCCCC21 (stereo in doubt; form 1)", "<", 10),
    ("O=C(O)[C@@H]1CCCC2NCCCC21 (stereo in doubt; form 2)", "<", 10),
    ("NCC(CC(=O)O)c1ccc(Cl)cc1 (stereo unspecified)", "=", 100),
    ("O=C(O)C1CCCC2NCCCC21 (trans isomer)", "=", 38),
]

* * *

# targetSystem: GABA-A receptor; anion channel (Rattus norvegicus) (UniProt O09028+P15431+P18506+P18508+P19969+P20236+P23574+P23576+P28471+P28473+P30191+P62813+P63079+P63138+Q91ZM7+Q9ES14)
# experimentDescription: Displacement of [3H]diazepam binding in rat brain membranes
# Assay type: cell membranes
# Set-up: unit not given here

# molecule, Binding affinity (spec bound mg-1)
rows = [
    ("O=C(O)[C@@H]1CCCC2NCCCC21 (stereo in doubt; 3)", 28.8),
    ("O=C(O)C1CCCC2NCCCC21 (trans isomer)", 35),
    ("O=C(O)[C@@H]1CCCC2NCCCC21 (stereo in doubt; form 2)", 32),
    ("CN1C(=O)CN=C(c2ccccc2)c2cc(Cl)ccc21", 29.3),
]

* * *

# targetSystem: GABA-A receptor; anion channel (Rattus norvegicus) (UniProt O09028+P15431+P18506+P18508+P19969+P20236+P23574+P23576+P28471+P28473+P30191+P62813+P63079+P63138+Q91ZM7+Q9ES14)
# experimentDescription: Displacement of [3H]-GABA from Gamma-aminobutyric acid A receptor in rat brain membranes
# Assay type: cell membranes
# Design: concentration or dose not given beside the values

# compound, comparisonSymbol, Displacement / %
records = [
    ("NCC(CC(=O)O)c1ccc(Cl)cc1 (stereo unspecified)", "=", 15),
    ("O=C(O)[C@@H]1CCCC2NCCCC21 (stereo in doubt; 3)", "<", 10),
    ("NCCCC(=O)O", "=", 100),
    ("O=C(O)C1CCCC2NCCCC21 (trans isomer)", "=", 43),
    ("O=C(O)[C@@H]1CCCC2NCCCC21 (stereo in doubt; form 2)", "<", 10),
    ("O=C(O)[C@@H]1CCCC2NCCCC21 (stereo in doubt; form 1)", "<", 10),
]

* * *

Reported values of inhibition for individual entries
# targetSystem: GABA transporter (Rattus norvegicus) (UniProt P31647+P23978+P31646+P48056)
# Sequence (P31646 whole entry, looked up): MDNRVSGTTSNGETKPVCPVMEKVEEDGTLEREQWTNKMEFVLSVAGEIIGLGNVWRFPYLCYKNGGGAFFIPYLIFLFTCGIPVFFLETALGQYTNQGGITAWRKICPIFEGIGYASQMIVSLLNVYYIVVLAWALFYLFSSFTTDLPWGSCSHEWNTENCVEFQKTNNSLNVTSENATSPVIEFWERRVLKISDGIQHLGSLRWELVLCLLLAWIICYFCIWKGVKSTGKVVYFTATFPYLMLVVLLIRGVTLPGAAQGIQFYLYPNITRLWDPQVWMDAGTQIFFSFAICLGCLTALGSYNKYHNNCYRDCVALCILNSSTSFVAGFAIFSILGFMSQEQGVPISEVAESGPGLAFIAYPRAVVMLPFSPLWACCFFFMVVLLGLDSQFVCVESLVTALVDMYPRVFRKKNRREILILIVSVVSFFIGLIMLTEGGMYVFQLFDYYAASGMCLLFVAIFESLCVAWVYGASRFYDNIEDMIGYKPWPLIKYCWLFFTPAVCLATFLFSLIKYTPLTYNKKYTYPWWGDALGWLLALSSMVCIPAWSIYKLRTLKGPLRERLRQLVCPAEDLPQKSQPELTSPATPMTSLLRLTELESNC
# Sequence (P31647 whole entry, looked up): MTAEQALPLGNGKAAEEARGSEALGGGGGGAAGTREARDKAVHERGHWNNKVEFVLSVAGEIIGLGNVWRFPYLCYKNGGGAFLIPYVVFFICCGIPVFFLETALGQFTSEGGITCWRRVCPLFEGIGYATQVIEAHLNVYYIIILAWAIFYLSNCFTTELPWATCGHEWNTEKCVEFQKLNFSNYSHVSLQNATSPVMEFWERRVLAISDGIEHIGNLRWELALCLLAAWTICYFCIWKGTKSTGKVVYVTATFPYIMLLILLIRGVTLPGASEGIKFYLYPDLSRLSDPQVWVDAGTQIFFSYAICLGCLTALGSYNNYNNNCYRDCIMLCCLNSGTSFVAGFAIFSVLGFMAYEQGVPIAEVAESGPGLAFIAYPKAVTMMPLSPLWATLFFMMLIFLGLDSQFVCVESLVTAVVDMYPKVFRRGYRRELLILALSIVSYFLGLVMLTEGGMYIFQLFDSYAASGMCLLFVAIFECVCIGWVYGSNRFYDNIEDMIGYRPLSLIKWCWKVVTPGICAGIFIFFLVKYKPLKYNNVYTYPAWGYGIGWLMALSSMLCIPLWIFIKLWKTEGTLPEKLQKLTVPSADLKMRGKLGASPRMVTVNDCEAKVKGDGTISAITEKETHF
# Sequence (P48056 whole entry, looked up): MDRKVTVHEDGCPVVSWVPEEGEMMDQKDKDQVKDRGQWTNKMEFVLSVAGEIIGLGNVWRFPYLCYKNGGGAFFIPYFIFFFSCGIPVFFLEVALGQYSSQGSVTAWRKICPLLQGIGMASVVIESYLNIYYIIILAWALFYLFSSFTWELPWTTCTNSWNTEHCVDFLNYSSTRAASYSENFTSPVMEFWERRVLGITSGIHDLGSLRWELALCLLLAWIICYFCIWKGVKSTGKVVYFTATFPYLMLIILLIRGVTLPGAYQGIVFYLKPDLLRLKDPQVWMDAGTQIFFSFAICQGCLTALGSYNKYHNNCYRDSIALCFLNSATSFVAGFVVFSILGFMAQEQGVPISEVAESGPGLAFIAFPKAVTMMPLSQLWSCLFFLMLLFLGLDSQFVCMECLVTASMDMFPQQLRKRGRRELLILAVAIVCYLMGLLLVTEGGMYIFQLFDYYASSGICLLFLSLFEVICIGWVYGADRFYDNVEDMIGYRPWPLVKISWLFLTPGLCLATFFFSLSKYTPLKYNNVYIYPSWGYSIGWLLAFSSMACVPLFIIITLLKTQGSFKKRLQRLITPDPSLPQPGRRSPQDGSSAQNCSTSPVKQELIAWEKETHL
# experimentDescription: Inhibition of [3H]GABA uptake from rat brain membranes
# Type: functional, cell membranes
# reportedConditions: Membrane, concentration not given here

# compound, inhibition
measured = [
    ("O=C(O)[C@@H]1CCCC2NCCCC21 (stereo in doubt; 3)", "< 5%"),
    ("O=C(O)[C@@H]1CCCC2NCCCC21 (stereo in doubt; form 2)", "15%"),
    ("O=C(O)[C@@H]1CCCC2NCCCC21 (stereo in doubt; form 1)", "< 5%"),
    ("O=C(O)C1CCCC2NCCCC21 (trans isomer)", "< 5%"),
]
